Below, each of the molecules is paired with its reported pEC50 value.
Target: pDNA-PK ser2056 induction in HCT116 spheroids (Homo sapiens)
Construct: endogenous in cells; host or cells: HCT116 multicellular tumour spheroids
Assay: Multicellular tumour spheroid + radiation, pDNA-PK inhibition, HCT116
Type: cell-based
Details: Example 7; spheroid, cell line HCT115 [sic]; 20 Gy; 20% O2; read-out: EC50 (pDNA-PK inhibition, immunohistochemical endpoint)
Experimental: Multicellular tumour spheroids determination of compound inhibition of pDNA-PK induction following radiation. […] Multicellular tumour spheroids determination of compound inhibition of pDNA-PK induction following radiation. […] For cell survival endpoint 8 Gy radiation was used and 3 hours following radiation spheroids were dissociated, counted and plated for colony forming endpoint. […]
pEC50: −log10 of the molar value.
readoutLabel: pEC50

[[record]]
molecule = "c1cnc2cc(N3CCOCC3)nc(O[C@H]3CC[C@@H](Nc4ccn5nccc5n4)CC3)c2c1"
value = "6.00 to 6.30"

[[record]]
molecule = "NS(=O)(=O)c1cnc(N[C@H]2CC[C@@H](Oc3nc(N4CCOCC4)cc4ncccc34)CC2)nc1"
value = "6.00 to 6.30"

[[record]]
molecule = "Ic1cnc(N[C@H]2CC[C@@H](Oc3nc(N4CCOCC4)cc4ncccc34)CC2)nc1"
value = "5.00 to 6.00"

[[record]]
molecule = "N#Cc1cnc2cc(N3CCOCC3)nc(O[C@H]3CC[C@@H](Nc4ncccn4)CC3)c2c1 [Compound 200a]"
value = "5.00 to 6.00"


###

test: Pharmacokinetic study in mice (IV, PO); assay type: in vivo, mice (C57BL/6); settings: female, C57BL/6; Table D; Mouse Plasma; PO; 10 mg/kg; read-out: AUCINF—obs
readoutLabel: AUC(0-inf) (ng·h/mL)

[[record]]
chemicalstructure = "O=C(N[C@H]1CC[C@@H](Oc2nc(N3CCOCC3)cc3ncccc23)CC1)c1cc[nH]c1"
value = 2150


###

test: Microsomal stability assay, mouse liver microsomes; conditions: 60 min
readoutLabel: Microsomal Stability (mouse) % rem. 60 min

[[record]]
compound = "c1cnc2cc(N3CCOCC3)nc(O[C@H]3CC[C@@H](n4ncnn4)CC3)c2c1 [Compound 17m]"
value = "E (% remaining = 0-25%)"

[[record]]
compound = "COc1cnc(N[C@H]2CC[C@@H](Oc3nc(N4CCOCC4)cc4ncccc34)CC2)nc1 [Compound 20c]"
value = "E (% remaining = 0-25%)"

[[record]]
compound = "c1cnc2cc(N3CCOCC3)nc(O[C@H]3CC[C@@H](Nc4cncnc4)CC3)c2c1"
value = "E (% remaining = 0-25%)"

[[record]]
compound = "FC(F)(F)c1cn([C@H]2CC[C@@H](Oc3nc(N4CCOCC4)cc4ncccc34)CC2)cn1 [Compound 17k]"
value = "E (% remaining = 0-25%)"

[[record]]
compound = "c1cncc(N[C@H]2CC[C@@H](Oc3nc(N4CCOCC4)cc4ncccc34)CC2)c1"
value = "E (% remaining = 0-25%)"

[[record]]
compound = "c1ccc(N[C@H]2CC[C@@H](Oc3nc(N4CCOCC4)cc4ncccc34)CC2)nc1"
value = "F (% remaining = 25-50%)"

[[record]]
compound = "Cc1cnc(N[C@H]2CC[C@@H](Oc3nc(N4CCOCC4)cc4ncccc34)CC2)nc1"
value = "E (% remaining = 0-25%)"

[[record]]
compound = "FC(F)(F)c1cnc(N[C@H]2CC[C@@H](Oc3nc(N4CCOCC4)cc4ncccc34)CC2)nc1"
value = "E (% remaining = 0-25%)"

[[record]]
compound = "O=C(N[C@H]1CC[C@@H](Oc2nc(N3CCOCC3)cc3ncccc23)CC1)c1cnccn1"
value = "E (% remaining = 0-25%)"

[[record]]
compound = "Nc1cnc2cc(N3CCOCC3)nc(O[C@H]3CC[C@@H](n4ccnc4)CC3)c2c1"
value = "E (% remaining = 0-25%)"

[[record]]
compound = "O=C(N[C@H]1CC[C@@H](Oc2nc(N3CCOCC3)cc3ncccc23)CC1)c1cc[nH]c1"
value = "G (% remaining = 50-75%)"

[[record]]
compound = "CS(=O)(=O)Nc1cnc2cc(N3CCOCC3)nc(O[C@H]3CC[C@@H](NC(=O)c4ncccn4)CC3)c2c1"
value = "G (% remaining = 50-75%)"

[[record]]
compound = "O=C(N[C@H]1CC[C@@H](Oc2nc(N3CCOCC3)cc3ncccc23)CC1)c1ccc(F)cc1"
value = "E (% remaining = 0-25%)"

[[record]]
compound = "O=C(N[C@H]1CC[C@@H](Oc2nc(N3CCOCC3)cc3ncccc23)CC1)c1scnc1Cl"
value = "G (% remaining = 50-75%)"

[[record]]
compound = "COc1cnc(N[C@H]2CC[C@@H](Oc3nc(N4CCOCC4)cc4ncc(N)cc34)CC2)nc1"
value = "E (% remaining = 0-25%)"

[[record]]
compound = "O=C(N[C@H]1CC[C@@H](Oc2nc(N3CCOCC3)cc3ncccc23)CC1)c1ncc(Cl)cn1"
value = "F (% remaining = 25-50%)"


###

target: pDNA-PK ser2056 induction in HCT116 spheroids (Homo sapiens, UniProt P78527); construct: endogenous in cells; host or cells: HCT116 multicellular tumour spheroids; experiment: Multicellular tumour spheroid + radiation, pDNA-PK inhibition, HCT116; format: cell-based; conditions: Example 9 Study 2; 20 Gy; 20% O2; read-out: Spheroid Cell line: HCT116 Immunohistochemical endpoint pDNA-PK inhibition EC50
pEC50: −log10 of the molar value.
readoutLabel: pEC50

[[record]]
molecule = "Brc1cnc2cc(N3CCOCC3)nc(O[C@H]3CC[C@@H](n4ccnc4)CC3)c2c1 [Compound 10]"
value = "5.00 to 6.00"

[[record]]
molecule = "O=C(N[C@H]1CC[C@@H](Oc2nc(N3CCOCC3)cc3ncccc23)CC1)c1ccnnc1 [Compound 121]"
value = "5.00 to 6.00"

[[record]]
molecule = "CN(C)C(=O)c1cnc(N[C@H]2CC[C@@H](Oc3nc(N4CCOCC4)cc4ncccc34)CC2)nc1 [Compound 53]"
value = "6.00 to 6.30"

[[record]]
molecule = "CS(=O)(=O)Nc1cnc2cc(N3CCOCC3)nc(O[C@H]3CC[C@@H](n4ccnc4)CC3)c2c1 [Compound 161]"
value = "5.00 to 6.00"

[[record]]
molecule = "O=C(N[C@H]1CC[C@@H](Oc2nc(N3CCOCC3)cc3ncccc23)CC1)c1ccncc1 [Compound 113]"
value = "6.00 to 6.30"

[[record]]
molecule = "O=C(N[C@H]1CC[C@@H](Oc2nc(N3CCOCC3)cc3ncccc23)CC1)N1CCOCC1 [Compound 14]"
value = "5.00 to 6.00"

[[record]]
molecule = "O=C(N[C@H]1CC[C@@H](Oc2nc(N3CCOCC3)cc3ncccc23)CC1)C1(O)CC1 [Compound 109]"
value = "4.00 to 5.00"

[[record]]
molecule = "O=C(N[C@H]1CC[C@@H](Oc2nc(N3CCOCC3)cc3ncccc23)CC1)c1cccnn1 [Compound 120]"
value = "5.00 to 6.00"

[[record]]
molecule = "O=C(N[C@H]1CC[C@@H](Oc2nc(N3CCOCC3)cc3ncccc23)CC1)c1ncco1 [Compound 142]"
value = "5.00 to 6.00"

[[record]]
molecule = "FC(F)c1ccnc2cc(N3CCOCC3)nc(O[C@H]3CC[C@@H](Nc4ncccn4)CC3)c12 [Compound 22]"
value = "6.00 to 6.30"

[[record]]
molecule = "CCOCCOc1cnc(N[C@H]2CC[C@@H](Oc3nc(N4CCOCC4)cc4ncc(O)cc34)CC2)nc1 [Compound 19b]"
value = "6.30 to 8.00"

[[record]]
molecule = "Cc1cnc(C(=O)N[C@H]2CC[C@@H](Oc3nc(N4CCOCC4)cc4ncccc34)CC2)nc1 [Compound 128]"
value = "5.00 to 6.00"

[[record]]
molecule = "COc1cnc(N[C@H]2CC[C@@H](Oc3nc(N4CCOCC4)cc4ncc(N)cc34)CC2)nc1 [Compound 202]"
value = "5.00 to 6.00"

[[record]]
molecule = "O=C(N[C@H]1CC[C@@H](Oc2nc(N3CCOCC3)cc3ncccc23)CC1)c1ncc(Cl)cn1 [Compound 124]"
value = "5.00 to 6.00"

[[record]]
molecule = "Cc1nc(N[C@H]2CC[C@@H](Oc3nc(N4CCOCC4)cc4ncccc34)CC2)c2occc2n1 [Compound 81]"
value = "6.00 to 6.30"

[[record]]
molecule = "Fc1cnc(N[C@H]2CC[C@@H](Oc3nc(N4CCOCC4)cc4ncccc34)CC2)nc1 [Compound 40]"
value = "5.00 to 6.00"


###

Target: DNA-PK phosphorylation at Serine 2056 (Homo sapiens)
Construct: host or cells: FaDu
Test: Cellular Assay for Inhibition of DNA-PK Phosphorylation at Serine 2056 (FaDu cells, neocarzinostatin, sandwich ELISA)
Format: cell-based
Settings: Table 2
Procedure: FaDu cells were purchased from ATCC and maintained in MEM alpha medium (Life Technologies, cat. no. 12561) supplemented with 10% fetal bovine serum, and 1% GlutaMAX at 37° C. supplemented with 5% CO2. 50,000 cells were seeded to each well of a 96-well cell culture plate in 50 μL of culture medium and incubated for 16-24 hours. Three-fold serially diluted compounds were prepared in DMSO. […] Cell lysates were thawed on wet ice and protein concentrations quantified by BCA Protein Assay (Thermo # 23225). […]
pIC50: −log10 of the molar value.
readoutLabel: pIC50

[[record]]
compound = "CS(=O)(=O)Nc1cnc2cc(N3CCOCC3)nc(O[C@H]3CC[C@@H](Nc4ncccn4)CC3)c2c1"
targetsystem = "DNA-PK phosphorylation at Serine 2056 (Homo sapiens)"
value = "> 7.00"

[[record]]
compound = "O=C(N[C@H]1CC[C@@H](Oc2nc(N3CCOCC3)cc3ncc(O)cc23)CC1)c1ncccn1"
targetsystem = "DNA-PK phosphorylation at Serine 2056 (Homo sapiens)"
value = "6.00 to 7.00"

[[record]]
compound = "CNC(=O)c1cnc(N[C@H]2CC[C@@H](Oc3nc(N4CCOCC4)cc4ncc(NS(C)(=O)=O)cc34)CC2)nc1"
targetsystem = "DNA-PK phosphorylation at Serine 2056 (Homo sapiens)"
value = "6.00 to 7.00"

[[record]]
compound = "CS(=O)(=O)Nc1cnc2cc(N3CCOCC3)nc(O[C@H]3CC[C@@H](NC(=O)c4ncccn4)CC3)c2c1"
targetsystem = "DNA-PK phosphorylation at Serine 2056 (Homo sapiens)"
value = "5.00 to 6.00"

[[record]]
compound = "CS(=O)(=O)Nc1cnc2cc(N3CCOCC3)nc(O[C@H]3CC[C@@H](Nc4ncc(C#N)cn4)CC3)c2c1"
targetsystem = "DNA-PK phosphorylation at Serine 2056 (Homo sapiens)"
value = "> 7.00"

[[record]]
compound = "CS(=O)(=O)Nc1cnc2cc(N3CCOCC3)nc(O[C@H]3CC[C@@H](Nc4ncc(C(F)(F)F)cn4)CC3)c2c1"
targetsystem = "DNA-PK phosphorylation at Serine 2056 (Homo sapiens)"
value = "> 7.00"

[[record]]
compound = "CC(c1cnc([N+](=O)[O-])n1C)N(c1cnc2cc(N3CCOCC3)nc(OC3CCC(Nc4ncccn4)CC3)c2c1)S(C)(=O)=O (stereo not drawn)"
targetsystem = "DNA-PK phosphorylation at Serine 2056 (Homo sapiens)"
value = "5.00 to 6.00"

[[record]]
compound = "Cn1c(CN(c2cnc3cc(N4CCOCC4)nc(OC4CCC(n5ccnc5)CC4)c3c2)S(C)(=O)=O)cnc1[N+](=O)[O-] (stereo not drawn)"
targetsystem = "DNA-PK phosphorylation at Serine 2056 (Homo sapiens)"
value = "4.52 to 5.00"

[[record]]
compound = "CS(=O)(=O)Nc1cnc2cc(N3CCOCC3)nc(O[C@H]3CC[C@@H](Nc4ncc(C(N)=O)cn4)CC3)c2c1"
targetsystem = "DNA-PK phosphorylation at Serine 2056 (Homo sapiens)"
value = "5.00 to 6.00"

[[record]]
compound = "CN(C)C(=O)c1cnc(N[C@H]2CC[C@@H](Oc3nc(N4CCOCC4)cc4ncc(NS(C)(=O)=O)cc34)CC2)nc1"
targetsystem = "DNA-PK phosphorylation at Serine 2056 (Homo sapiens)"
value = "6.00 to 7.00"

[[record]]
compound = "Oc1cnc2cc(N3CCOCC3)nc(O[C@H]3CC[C@@H](Nc4ncccn4)CC3)c2c1"
targetsystem = "DNA-PK phosphorylation at Serine 2056 (Homo sapiens)"
value = "> 7.00"

[[record]]
compound = "Nc1cnc2cc(N3CCOCC3)nc(O[C@H]3CC[C@@H](Nc4ncccn4)CC3)c2c1"
targetsystem = "DNA-PK phosphorylation at Serine 2056 (Homo sapiens)"
value = "> 7.00"

